Would you kindly list fold change (FC) for each of these compounds?
Test system: Human immunodeficiency virus 1
test_method_notes: Antiviral activity against HIV1 A17 harboring protease L10F, V32I, M46I, I47V, Q58E and I84V mutant infected in human MT4 cells assessed as inhibition of virus-induced cell death after 5 days by MTT assay relative to wild type HIV1 pNL4-3
Type: functional
Numbers only.

input_smiles	fold change (FC)
COC(=O)N[C@H](C(=O)N[C@@H](Cc1ccccc1)C[C@H](O)[C@H](Cc1ccc(-c2cncc(F)c2)cc1)NC(=O)[C@@H](NC(=O)OC)C(C)(C)C)C(C)(C)C	3
COC(=O)N[C@H](C(=O)N[C@@H](Cc1ccccc1)C[C@H](O)[C@H](Cc1ccc(-c2ccc(CO)nc2)cc1)NC(=O)[C@@H](NC(=O)OC)C(C)(C)C)C(C)(C)C	0.2

Here is the next item to consider.
Find the measured fold change (FC) of COC(=O)N[C@H](C(=O)N[C@@H](Cc1ccccc1)C[C@H](O)[C@H](Cc1ccc(-c2ccccc2)cc1)NC(=O)[C@@H](NC(=O)OC)C(C)(C)C)C(C)(C)C and report it.
21
